assay.system: serum sample IHUS#B09032311A3
test: ECL displacement assay, variant competes with tagged SEQ ID NO:1
measurement.label: % reduction (%)
Give the value in % but do not write % after it.

Consider Example 1C: (A14P, R39Q, K83R, T91Y, Q108L) (SEQ ID NO: 28) (VHH) VHH: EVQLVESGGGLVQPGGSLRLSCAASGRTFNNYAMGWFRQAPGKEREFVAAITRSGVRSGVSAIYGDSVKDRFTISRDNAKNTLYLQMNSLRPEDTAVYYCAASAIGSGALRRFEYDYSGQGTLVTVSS . Its measured % reduction is 90

Consider Example 1C: (A14P, K83R, Q108L) (SEQ ID NO: 27) (VHH) VHH: EVQLVESGGGLVQPGGSLRLSCAASGRTFNNYAMGWFRRAPGKEREFVAAITRSGVRSGVSAIYGDSVKDRFTISRDNAKNTLYLQMNSLRPEDTAVYTCAASAIGSGALRRFEYDYSGQGTLVTVSS . Its measured % reduction is 93

Consider Example 1C: (K83R) (SEQ ID NO: 25) (VHH) VHH: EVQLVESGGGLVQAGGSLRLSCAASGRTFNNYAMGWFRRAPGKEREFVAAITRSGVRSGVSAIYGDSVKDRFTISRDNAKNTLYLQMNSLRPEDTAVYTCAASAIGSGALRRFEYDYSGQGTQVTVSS . Its measured % reduction is 37

Consider Example 1C: (A14P) (SEQ ID NO: 24) (VHH) VHH: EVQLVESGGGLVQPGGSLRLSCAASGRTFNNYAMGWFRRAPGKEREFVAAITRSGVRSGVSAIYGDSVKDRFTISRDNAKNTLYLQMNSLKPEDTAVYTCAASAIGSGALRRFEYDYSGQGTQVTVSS . Its measured % reduction is 91

Consider Example 1C: wildtype VHH (SEQ ID NO: 23) (VHH) VHH: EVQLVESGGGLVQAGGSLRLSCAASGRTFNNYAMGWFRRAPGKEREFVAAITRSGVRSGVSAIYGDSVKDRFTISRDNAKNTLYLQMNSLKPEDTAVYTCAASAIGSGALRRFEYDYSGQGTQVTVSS . Its measured % reduction is 20

Consider Example 1C: (Q108L) (SEQ ID NO: 26) (VHH) VHH: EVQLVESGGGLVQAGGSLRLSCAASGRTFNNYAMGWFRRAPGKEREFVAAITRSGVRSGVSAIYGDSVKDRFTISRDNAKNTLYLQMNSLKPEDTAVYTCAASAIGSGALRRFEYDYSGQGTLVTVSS . Its measured % reduction is 31

The origin of these recorded values is patent US20140205597A1.
